test: Plasma concentration after oral administration of linaprazan glurate; assay type: in vivo, human; details: human, plasma, oral; after 22 hours, estimated from Phase I studies of linaprazan glurate; read-out: minimal plasma concentration (Cmin) of linaprazan required to maintain intra-gastric pH above 4 for 24 hours

chemical structure | concentration at 22 h
Cc1cccc(C)c1CNc1cc(C(=O)NCCO)cn2c(C)c(C)nc12 | ≥ 240 nM
